Reference source for all entries: patent US11021444B2

- Tested on: Respiratory Syncytial Virus (RSV) long strain
- test description: microbe, parasite or virus in culture
- Assay type: cell-based
- recorded conditions: human respiratory syncytial virus, HEp-2, 120 h, read-out: 50% effective concentration (EC50), HEp-2 cells infected with RSV long strain, 5 days, CCK-8 readout; Tables A and B list compounds by EC50 band
experimental endpoint: EC50

compound="CCNC(C)(C)c1cc(-c2ccc(F)cc2)nc(C(O)(CNC(=O)c2ccc(OC3CC3)c(OC)c2)C(F)(F)F)c1 (stereo not shown)" reported_value="< 1000 nM"
compound="COc1cc(C(=O)NCC(O)(CN(C)C)c2ccc(OC)c(-c3ccc(F)c(Cl)c3)n2)ccc1OCCO (stereo not shown)" reported_value="1000 to 50000 nM"
compound="COc1cc(C(=O)NCC(O)(c2cc3c(c(-c4ccc(Cl)cc4)n2)OCC3(C)N)C(F)(F)F)ccc1CO[C@@H](C)O (stereo partly shown)" reported_value="< 1000 nM"

Exercise: For the compound CNc1cc(-c2ccc(F)c(Cl)c2)nc(C(O)(CNC(=O)c2ccc(OC3CC3)c(OC)c2)C(F)(F)F)c1 (stereo not shown) , what EC50 is on record?
Key: < 1000 nM

###

- test description: Cytotoxicity Determination (CCK-8, without addition of virus)
- Assay type: cell-based
- recorded conditions: human, 50% cytotoxicity concentration (CC50)
experimental endpoint: CC50 at 5 days

compound="CCc1cc(-c2ccc(F)c(Cl)c2)nc(C(C)(O)CNC(=O)c2ccc(OCC(F)F)c(OC)c2)c1 (stereo not shown)" experimental_endpoint="CC50 at 5 days" reported_value="10 to 100 µM"
compound="COc1cc(C(=O)NCC(O)(c2ccc(OC)c(-c3ccc(F)c(Cl)c3)n2)C(F)(F)F)ccc1OCCO (stereo not shown)" experimental_endpoint="CC50 at 5 days" reported_value="10 to 100 µM"
compound="COc1cc(C(=O)NCC(O)(c2ccc(OC)c(-c3ccc(F)c(Cl)c3)n2)C(F)(F)F)ccc1OC1CC(F)C1 (stereo not shown)" experimental_endpoint="CC50 at 5 days" reported_value="> 100 µM"

Exercise: For the compound COc1ccc(C(O)(CNC(=O)c2ccc3c(c2)[nH]c(=O)n3C)C(F)(F)F)nc1-c1ccc(F)c(Cl)c1 (stereo not shown) , what CC50 at 5 days is on record?
Key: 10 to 100 µM

###

- test description: Cytotoxicity Determination (CCK-8, without addition of virus)
- Type: cell-based
- recorded conditions: human, 50% cytotoxicity concentration (CC50)
List of CC50 at 5 days values.

Exercise: For the compound COc1cc(C(=O)NCC(O)(c2cc(C(C)(C)N)cc(-c3ccc(F)c(Cl)c3)n2)C(F)(F)F)ccc1OC[C@@H](C)O (some centres unmarked) [Compound 317] , what CC50 at 5 days is on record?
Key: 10 to 100 µM

Exercise: Now give it for COc1cc(C(=O)NCC(O)(c2cc3c(c(-c4ccc(F)c(Cl)c4)n2)OCC3(C)N[S+]([O-])C(C)(C)C)C(F)(F)F)ccc1OC1CC1 (centres unmarked) [Compound 482] too.
Key: 10 to 100 µM

Exercise: Now give it for COc1cc(C(=O)NCC(O)(c2ccc(OC)c(-c3ccc(F)c(Cl)c3)n2)C(F)(F)F)ccc1OC1CCC1 (centres unmarked) [Compound 245] too.
Key: > 100 µM

Exercise: Now give it for COc1cc(C(=O)NCC(O)(c2ccc(OC)c(-c3ccc(F)c(Cl)c3)n2)C(F)(F)F)ccc1OC1CCCNC1=O (centres unmarked) [Compound 340] too.
Key: 10 to 100 µM

Exercise: Now give it for COc1cc(C(=O)NCC(O)(c2cc(C(C)(C)NC(N)=O)cc(-c3ccc(F)c(Cl)c3)n2)C(F)(F)F)ccc1OC1CC1 (centres unmarked) [Compound 516] too.
Key: 10 to 100 µM

Exercise: Now give it for COc1cc(C(=O)NCC(O)(c2cc3c(c(-c4ccc(F)c(Cl)c4)n2)OCCC3(C)C)C(F)(F)F)ccc1OC1CC1 (centres unmarked) [Compound 345] too.
Key: > 100 µM

Exercise: Now give it for CNC(C)(C)c1cc(-c2ccc(F)c(Cl)c2)nc(C(O)(CNC(=O)c2ccc(OCC(N)=O)c(OC)c2)C(F)(F)F)c1 (centres unmarked) [Compound 487] too.
Key: 10 to 100 µM

Exercise: Now give it for COc1cc(C(=O)NCC(O)(c2cc(C(C)(N)C(N)=O)cc(-c3ccc(F)c(Cl)c3)n2)C(F)(F)F)ccc1OC1CC1 (centres unmarked) [Compound 536] too.
Key: 10 to 100 µM

Exercise: Now give it for COc1cc(C(=O)NCC(O)(CN(C)C)c2ccc(OC)c(-c3ccc(F)c(Cl)c3)n2)ccc1OCCO (centres unmarked) [Compound 178] too.
Key: > 100 µM

Exercise: Now give it for COc1cc(C(=O)NCC(O)(c2cc3c(c(-c4ccc(F)c(Cl)c4)n2)OCC3(C)C)C(F)(F)F)ccc1OCC(N)=O (centres unmarked) [Compound 210] too.
Key: 10 to 100 µM

Exercise: Now give it for COc1cc(C(=O)NCC(O)(c2cc3c(c(-c4ccc(F)nc4)n2)OCC3(C)N)C(F)(F)F)ccc1OCCO (centres unmarked) [Compound 492] too.
Key: > 100 µM

###

- test description: Cytotoxicity Determination (CCK-8, without addition of virus)
- Type: cell-based
- recorded conditions: human, 50% cytotoxicity concentration (CC50)
experimental endpoint: CC50 at 5 days

Answered cases to consult:
compound="COc1cc(C(=O)NCC(C)(O)c2cc3c(c(-c4ccc(F)c(Cl)c4)n2)OCC3(C)C)ccc1OCCF (stereo not shown) [Compound 227]" experimental_endpoint="CC50 at 5 days" reported_value="10 to 100 µM"
compound="COc1cc(C(=O)NCC(O)(c2cc(C(N)CO)cc(-c3ccc(F)cc3)n2)C(F)(F)F)ccc1OC1CC1 (stereo not shown) [Compound 529]" experimental_endpoint="CC50 at 5 days" reported_value="10 to 100 µM"
compound="COc1cc(C(=O)NCC(O)(c2cc3c(c(-c4ccc(F)cc4)n2)OCC3(C)N)C(F)(F)F)cc2ccc(=O)[nH]c12 (stereo not shown) [Compound 642]" experimental_endpoint="CC50 at 5 days" reported_value="10 to 100 µM"

We next turn to a different compound, shown below.
Exercise: For the compound COc1cc(C(=O)NCC(O)(CNC2CC2)c2ccc(OC)c(-c3ccc(F)c(Cl)c3)n2)ccc1OCCO (stereo not shown) [Compound 189] , what CC50 at 5 days is on record?
Key: > 100 µM

###

- system: recombinant RSV complex (Human respiratory syncytial virus A)
- Sequence (P28887 whole entry): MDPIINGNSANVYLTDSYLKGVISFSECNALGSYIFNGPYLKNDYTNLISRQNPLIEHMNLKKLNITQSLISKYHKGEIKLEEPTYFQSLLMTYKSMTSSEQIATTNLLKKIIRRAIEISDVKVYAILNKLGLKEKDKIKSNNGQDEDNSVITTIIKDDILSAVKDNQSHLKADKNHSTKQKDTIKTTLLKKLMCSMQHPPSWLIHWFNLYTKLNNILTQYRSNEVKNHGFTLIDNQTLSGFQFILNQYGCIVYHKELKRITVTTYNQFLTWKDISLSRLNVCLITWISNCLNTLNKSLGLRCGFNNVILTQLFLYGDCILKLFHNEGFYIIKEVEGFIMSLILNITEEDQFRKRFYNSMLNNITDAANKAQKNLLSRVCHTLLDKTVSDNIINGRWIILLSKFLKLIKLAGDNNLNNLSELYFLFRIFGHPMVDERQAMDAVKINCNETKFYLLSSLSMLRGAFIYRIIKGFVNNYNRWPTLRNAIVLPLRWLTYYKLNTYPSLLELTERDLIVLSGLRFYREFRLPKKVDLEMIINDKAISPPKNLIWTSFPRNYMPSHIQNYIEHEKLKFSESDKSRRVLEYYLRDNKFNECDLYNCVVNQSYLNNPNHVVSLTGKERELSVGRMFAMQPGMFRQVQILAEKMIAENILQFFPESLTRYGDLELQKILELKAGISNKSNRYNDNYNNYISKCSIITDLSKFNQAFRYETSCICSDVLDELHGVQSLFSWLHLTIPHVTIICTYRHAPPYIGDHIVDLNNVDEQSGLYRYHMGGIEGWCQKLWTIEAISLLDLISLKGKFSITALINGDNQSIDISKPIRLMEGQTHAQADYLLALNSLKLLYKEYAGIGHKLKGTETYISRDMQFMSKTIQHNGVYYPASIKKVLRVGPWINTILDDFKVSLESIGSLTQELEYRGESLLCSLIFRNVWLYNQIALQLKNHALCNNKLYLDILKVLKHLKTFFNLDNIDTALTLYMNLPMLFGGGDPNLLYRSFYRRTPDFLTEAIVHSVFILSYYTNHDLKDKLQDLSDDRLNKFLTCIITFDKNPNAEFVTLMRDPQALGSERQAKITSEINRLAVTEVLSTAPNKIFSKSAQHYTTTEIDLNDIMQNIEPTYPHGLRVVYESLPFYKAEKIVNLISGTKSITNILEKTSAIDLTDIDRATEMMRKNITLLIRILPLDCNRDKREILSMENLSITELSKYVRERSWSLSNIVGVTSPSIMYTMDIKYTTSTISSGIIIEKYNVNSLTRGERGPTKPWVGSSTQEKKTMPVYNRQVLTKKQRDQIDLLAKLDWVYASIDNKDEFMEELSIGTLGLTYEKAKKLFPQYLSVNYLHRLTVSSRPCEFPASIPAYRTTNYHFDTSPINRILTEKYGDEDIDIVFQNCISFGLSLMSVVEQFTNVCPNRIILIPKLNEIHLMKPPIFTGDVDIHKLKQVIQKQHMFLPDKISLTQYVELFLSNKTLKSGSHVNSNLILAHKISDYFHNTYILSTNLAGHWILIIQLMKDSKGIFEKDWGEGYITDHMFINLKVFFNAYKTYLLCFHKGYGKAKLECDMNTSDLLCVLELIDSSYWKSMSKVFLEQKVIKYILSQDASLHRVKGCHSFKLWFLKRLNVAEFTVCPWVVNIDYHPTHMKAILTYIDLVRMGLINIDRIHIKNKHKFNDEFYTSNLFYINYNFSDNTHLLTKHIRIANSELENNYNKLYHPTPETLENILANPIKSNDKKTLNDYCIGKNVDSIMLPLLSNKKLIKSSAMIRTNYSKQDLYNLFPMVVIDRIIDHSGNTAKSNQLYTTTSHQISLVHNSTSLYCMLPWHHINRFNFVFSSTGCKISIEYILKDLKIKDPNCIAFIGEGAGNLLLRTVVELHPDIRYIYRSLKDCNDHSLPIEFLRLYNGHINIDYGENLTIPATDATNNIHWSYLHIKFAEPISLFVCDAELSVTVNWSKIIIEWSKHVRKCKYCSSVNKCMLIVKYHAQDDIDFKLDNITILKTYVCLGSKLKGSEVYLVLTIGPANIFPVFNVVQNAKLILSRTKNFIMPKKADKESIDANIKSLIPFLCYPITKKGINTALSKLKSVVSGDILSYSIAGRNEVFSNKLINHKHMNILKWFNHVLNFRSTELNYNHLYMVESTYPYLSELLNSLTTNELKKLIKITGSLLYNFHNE
- Sequence (P03421 whole entry, further chain): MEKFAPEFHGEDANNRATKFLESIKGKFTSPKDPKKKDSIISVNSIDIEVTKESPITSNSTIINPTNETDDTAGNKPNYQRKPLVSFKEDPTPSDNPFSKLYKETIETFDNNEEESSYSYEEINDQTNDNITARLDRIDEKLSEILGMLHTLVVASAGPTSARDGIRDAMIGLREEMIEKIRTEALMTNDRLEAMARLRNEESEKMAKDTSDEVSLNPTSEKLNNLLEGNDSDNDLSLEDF
- test description: RSV Polymerase Inhibition Assay
- Format: biochemical
experimental endpoint: IC50

compound="COc1cc(C(=O)NCC(F)(c2cc(C(C)(C)N)cc(-c3ccc(F)c(Cl)c3)n2)C(F)(F)F)ccc1OC1CC1 (stereo not shown)" system="recombinant RSV complex (Human respiratory syncytial virus A)" reported_value="< 1000 nM"

Exercise: For the compound COc1cc(C(=O)NCC(O)(c2cc3c(c(-c4ccc(F)c(Cl)c4)n2)OCCC3)C2CC2)ccc1OCCO (stereo not shown) , what IC50 is on record?
Key: < 1000 nM

###

- test description: Cytotoxicity Determination (CCK-8, without addition of virus)
- Type: cell-based
- recorded conditions: human, 50% cytotoxicity concentration (CC50)
List of CC50 at 5 days values.

Answered cases to consult:
compound="COc1cc(C(=O)NCC(O)c2ccc3c(n2)-c2c(sc4c(F)cccc24)CO3)ccc1OCCO (stereo not shown)" experimental_endpoint="CC50 at 5 days" reported_value="10 to 100 µM"
compound="COc1cc(C(=O)NCC(O)(c2cc3c(c(-c4ccc(Cl)c(F)c4)n2)OCC3(C)N)C(F)(F)F)ccc1CO[C@@H](C)O (stereo partly shown)" experimental_endpoint="CC50 at 5 days" reported_value="10 to 100 µM"
compound="COc1cc(C(=O)NCC(O)(c2cc3c(c(-c4ccc(F)c(Cl)c4)n2)OCC3(C)C)C(F)(F)F)ccc1OCC(C)O (stereo not shown)" experimental_endpoint="CC50 at 5 days" reported_value="10 to 100 µM"
compound="COc1cc(C(=O)NCC(O)(CNC(C)=O)c2ccc(OC)c(-c3ccc(F)c(Cl)c3)n2)ccc1OCCO (stereo not shown)" experimental_endpoint="CC50 at 5 days" reported_value="> 100 µM"
compound="CCC1(N)COc2c1cc(C(O)(CNC(=O)c1ccc(OCCO)c(OC)c1)C(F)(F)F)nc2-c1ccc(F)cc1 (stereo not shown)" experimental_endpoint="CC50 at 5 days" reported_value="10 to 100 µM"
compound="COc1cc(C(=O)NC[C@@](O)(c2cc3c(c(-c4ccc(C#N)cc4)n2)OC[C@]3(C)N)C(F)(F)F)ccc1OCCO [Compound 604b]" experimental_endpoint="CC50 at 5 days" reported_value="> 100 µM"

We next turn to a different compound, shown below.
Exercise: For the compound COc1cc(C(=O)NCC(O)(c2cc3c(c(-c4ccc(F)cc4)n2)OCC3(C)CN)C(F)(F)F)ccc1OC1CC1 (stereo not shown) , what CC50 at 5 days is on record?
Key: 10 to 100 µM
